Provenance of the data: patent US20210292393A1

Biological target: SARS-CoV-2 full length spike protein (wild-type), conjugated to optically encoded beads (SARS-CoV-2, UniProt P0DTC2 14-1208)
Catalogue of median fluorescence fold over isotype values
Please state the figure in fold over isotype; there is no need to write the unit.

Below, each entry is followed by its recorded median fluorescence fold over isotype result.
[[record]]
binder = "antibody 547 (antibody, V domains shown) VH: QVHLVESGGGVVQPGRSLRLSCAASGFALSSYAMHWVRQPPGKGLEWVALISYDGSVKKYADSVKGRITVSGDNSRNTLHLQINSLRADDTAVYYCVRGGVSGPNSFDLWGHGTMVTVSS VL: DVVLTQSPLSLPVTLGQPASISCRSSQSLEYSVGNTYVNWFQQRPGQSPRRLIYKVSNRDSGVPDRFSGSGSGTDFTLQISRVEADDVGIYYCMQGTHWPVTFGQGTKVEIK"
reported_value = 606

[[record]]
binder = "antibody 522 (antibody, V domains shown) VH: EVQLVESGGGLVQPGGSLRLSCAASGFNFSSYSMNWVRQAPGKGLEWVSYISSSSSTIYYADSVKGRFTISRDNAKNSLYLQMNSLRDEDTAVYYCARGPEWDIVVVQAENWFDPWGQGTLVTVSS VL: SYELTQPPSVSVSPGQTARITCSGDALPKQYVYWYQQKPGQAPVLVIYKDSERPSGIPERFSGSSSGTTVTLTISGVQAEDEADYYCQSADSSGTYRGVFGGGTKLTVL"
reported_value = 433


Request: Suppose we examine the binder antibody 517 (antibody, V domains shown) VH: QVQLVESGGGVVQPGRSLRLSCAASGFNLSNYAMHWVRQASGKGLEWVSLISYDGSIKYYTDSVKGRFTVSGDNSKNTLFLQMNSLRADDSALYYCVRGGVSGPNSFDMWGQGTTVTVSS VL: DVVMTQSPLSLPVTLGQPASISCRSSQSLVYSDGNTYVNWFQQRPGQSPRRLIYQVSIRASGVPDRFSGSGSGTDFALKISRVEAEDVGVYYCMQGTHWPVTFGQGTKVEIK ; what median fluorescence fold over isotype value has been reported?
Result: 434
